Provenance of the data: patent US7960380B2

# experimental.system: human LXRalpha Ligand Binding Domain (amino acid 205-447) (Homo sapiens, UniProt Q13133)
# Construct: human LXRalpha (amino acid 205-447)
# Sequence (Q13133 205-447): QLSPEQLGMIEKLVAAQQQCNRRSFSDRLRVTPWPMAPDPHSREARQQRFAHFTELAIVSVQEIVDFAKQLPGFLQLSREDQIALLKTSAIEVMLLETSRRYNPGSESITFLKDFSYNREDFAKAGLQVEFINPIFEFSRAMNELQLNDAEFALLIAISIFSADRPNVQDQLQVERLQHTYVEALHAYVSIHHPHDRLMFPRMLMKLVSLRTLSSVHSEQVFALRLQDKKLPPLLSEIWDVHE
# test: Co-activator recruitment assay (LXRalpha)
# reported.conditions: LXRα; SRC-1 peptide recruitment, time-resolved fluorescence; read-out: EC50 for LXRα in the coactivator recruitment assay
# Method: The Ligand Binding Domain (LBD) of human LXRalpha (amino acid 205-447) and LXRbeta (amino acid 216-461) was produced by recombinant techniques in E coli. A fragment of the human Steroid Receptor Co-Activator-1 (SRC-1) was produced as a synthetic peptide. […] Compounds (10 mM) in DMSO were diluted (1/3) in DMSO in 10 concentrations. […] Time-resolved fluorescence readings were done in a Wallac Victor reader at 665 nm followed by reading at 615 nm. […]
property.measured: EC50 (nM)

(P) CC(C)N1C(=O)C(NC2CCN(CCC#N)CC2)=C(c2ccccc2)S1(=O)=O
(Q) CCCCCCNC1=C(c2ccccc2)S(=O)(=O)N(CCCC)C1=O
**Query** Determine, for P and Q , which has the greater value of EC50. Please reply using the label of the selected record.
**Result** P
(P: 1420 nM, Q: 580 nM)

====

# experimental.system: human LXRalpha ligand binding domain (GAL4 fusion) (Homo sapiens, UniProt Q13133)
# Construct: human LXRalpha (amino acid 205-447)
# test: Transactivation (reporter gene) assay in U2/OS cells (LXRalpha)
# reported.conditions: LXRα, GAL4-LXR LBD luciferase reporter
property.measured: EC50 (nM)

(1) CCCCN1C(=O)C(NCCCOc2cccc(NC(C)=O)c2)=C(c2ccccc2)S1(=O)=O [Example 7]
(2) O=C1C(NCCCCc2ccccc2)=C(c2ccccc2)S(=O)(=O)N1C1CCCC1 [Example 2]
**Query** Pick one, 1 or 2 : lowest reported EC50. Use the label to indicate which entry you chose.
**Result** 1
